Quick list: pest or weed control at 50 ppm per entry.
Tested on: Botrytis cinerea
ASSAY METHOD TEXT: Test E: tomato Botrytis, preventive spray on tomato seedlings
Type: in vivo
CONDITION SET: Botrytis cinerea, 50 ppm, 100 = 100% disease control, 0 = no control, read-out: Test E disease control rating (tomato Botrytis)

Prompt line: Please report pest or weed control at 50 ppm for the following molecule: Cc1nn(C)c(Nc2c(F)cccc2[N+](=O)[O-])c1-c1ccc(F)cc1F [Compound 118]
Response line: 100%

Prompt line: Please report pest or weed control at 50 ppm for the following molecule: Cc1nn(C)c(Nc2c(F)cccc2[N+](=O)[O-])c1-c1c(F)cc(F)cc1Br [Compound 1]
Response line: 100%

Prompt line: Please report pest or weed control at 50 ppm for the following molecule: COc1ccc(-c2c(C)nn(C)c2Nc2c(Cl)cc(F)cc2[N+](=O)[O-])c(Cl)c1 [Compound 73]
Response line: 99%

Prompt line: Please report pest or weed control at 50 ppm for the following molecule: Cc1nn(C)c(Nc2c(F)cccc2[N+](=O)[O-])c1-c1ccc(C#N)cc1Cl [Compound 113]
Response line: 99%

Prompt line: Please report pest or weed control at 50 ppm for the following molecule: Cc1nn(C)c(N(C)c2c(F)cccc2[N+](=O)[O-])c1-c1ccc(F)cc1Cl [Compound 172]
Response line: 99%

---
Prompt line: Please report pest or weed control at 50 ppm for the following molecule: Cc1nn(C)c(Nc2c(F)cc(Br)cc2[N+](=O)[O-])c1-c1ccc(F)cc1Cl [Compound 61]
Response line: 99%

Prompt line: Please report pest or weed control at 50 ppm for the following molecule: Cc1nn(C)c(Nc2c(Cl)cc(F)cc2[N+](=O)[O-])c1-c1ccc(F)cc1Cl [Compound 19]
Response line: 100%

Prompt line: Please report pest or weed control at 50 ppm for the following molecule: CCc1nn(C)c(Nc2c(F)cccc2[N+](=O)[O-])c1-c1ccc(F)cc1Cl [Compound 72]
Response line: 98%
